Consider the following binders and their measured OD at 560 nm readings.
Target: T1, human ANGPTL8 (human, UniProt Q6UXH0 22-198)
T1 construct: Biotinylated in the ELISA assays; also called hANGPTL8; free ANGPTL8
T1 sequence: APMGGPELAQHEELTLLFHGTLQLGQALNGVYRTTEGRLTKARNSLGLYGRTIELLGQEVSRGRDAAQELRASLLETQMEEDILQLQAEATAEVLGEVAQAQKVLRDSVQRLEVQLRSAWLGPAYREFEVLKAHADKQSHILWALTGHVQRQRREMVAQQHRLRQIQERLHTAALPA
Assay: ELISA; Ab captured by anti-human Fc; biotinylated antigen at 0.137 nM
Write the value in OD 560 nm as a bare number.

>>> endpointresult("Ab with LC variant having a D33A mutation (SEQ ID NO:22) and a HC of SEQ ID NO:6 (antibody, human IgG4 S228P, kappa, F234A L235A, V domains shown, also called D33A Variant Ab; D33A Ab) VH: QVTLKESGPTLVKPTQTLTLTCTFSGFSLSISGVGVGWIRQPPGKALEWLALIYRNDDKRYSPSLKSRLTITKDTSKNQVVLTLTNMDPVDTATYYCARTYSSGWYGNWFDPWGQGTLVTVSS VL: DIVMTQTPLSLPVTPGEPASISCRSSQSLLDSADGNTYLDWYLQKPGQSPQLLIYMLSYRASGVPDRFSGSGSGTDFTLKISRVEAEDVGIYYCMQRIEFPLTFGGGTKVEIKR")
0.053

Query (binder): anti-ANGPTL3/8 complex Ab having a LC of SEQ ID NO:5 and a HC of SEQ ID NO:6 (antibody, human IgG4 S228P, kappa, F234A L235A, V domains shown, In the ELISA assays tested as IgG from CHO supernatants; also called the Ab) VH: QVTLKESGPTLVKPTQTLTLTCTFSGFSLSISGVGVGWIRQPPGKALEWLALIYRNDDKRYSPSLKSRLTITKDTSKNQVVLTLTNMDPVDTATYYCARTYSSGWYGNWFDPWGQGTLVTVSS VL: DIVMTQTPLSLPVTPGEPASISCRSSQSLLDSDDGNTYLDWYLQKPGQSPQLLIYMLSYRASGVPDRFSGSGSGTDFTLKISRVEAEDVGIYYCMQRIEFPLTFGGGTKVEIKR ; field requested: OD at 560 nm
0.047

Query (binder): Ab with LC variant having a D31S mutation (SEQ ID NO:21) and a HC of SEQ ID NO:6 (antibody, human IgG4 S228P, kappa, F234A L235A, V domains shown, also called D31S Variant Ab; D31S Ab) VH: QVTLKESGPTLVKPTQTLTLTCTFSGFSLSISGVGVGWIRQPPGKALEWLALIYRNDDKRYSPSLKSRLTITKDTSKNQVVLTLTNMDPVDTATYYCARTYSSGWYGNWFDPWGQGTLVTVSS VL: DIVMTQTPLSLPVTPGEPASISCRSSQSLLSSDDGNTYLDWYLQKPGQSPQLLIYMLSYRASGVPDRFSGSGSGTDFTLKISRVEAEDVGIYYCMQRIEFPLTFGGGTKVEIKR ; field requested: OD at 560 nm
0.08

Query (binder): Ab with LC variant having a E99Q mutation (SEQ ID NO:25) and a HC of SEQ ID NO:6 (antibody, human IgG4 S228P, kappa, F234A L235A, V domains shown, also called E99Q Variant Ab; E99Q Ab) VH: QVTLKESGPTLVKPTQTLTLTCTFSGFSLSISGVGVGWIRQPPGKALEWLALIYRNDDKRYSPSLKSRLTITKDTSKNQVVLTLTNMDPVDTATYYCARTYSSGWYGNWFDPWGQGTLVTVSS VL: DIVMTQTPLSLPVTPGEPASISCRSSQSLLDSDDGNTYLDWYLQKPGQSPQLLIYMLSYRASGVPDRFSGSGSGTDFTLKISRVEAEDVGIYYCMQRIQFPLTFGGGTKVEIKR ; field requested: OD at 560 nm
0.08
